Recorded values, source ChEMBL document CHEMBL3108759.

target.or.system: Neuronal acetylcholine receptor; alpha4/beta2 (Rattus norvegicus, UniProt P09483+P12390)
Sequence (P09483 whole entry): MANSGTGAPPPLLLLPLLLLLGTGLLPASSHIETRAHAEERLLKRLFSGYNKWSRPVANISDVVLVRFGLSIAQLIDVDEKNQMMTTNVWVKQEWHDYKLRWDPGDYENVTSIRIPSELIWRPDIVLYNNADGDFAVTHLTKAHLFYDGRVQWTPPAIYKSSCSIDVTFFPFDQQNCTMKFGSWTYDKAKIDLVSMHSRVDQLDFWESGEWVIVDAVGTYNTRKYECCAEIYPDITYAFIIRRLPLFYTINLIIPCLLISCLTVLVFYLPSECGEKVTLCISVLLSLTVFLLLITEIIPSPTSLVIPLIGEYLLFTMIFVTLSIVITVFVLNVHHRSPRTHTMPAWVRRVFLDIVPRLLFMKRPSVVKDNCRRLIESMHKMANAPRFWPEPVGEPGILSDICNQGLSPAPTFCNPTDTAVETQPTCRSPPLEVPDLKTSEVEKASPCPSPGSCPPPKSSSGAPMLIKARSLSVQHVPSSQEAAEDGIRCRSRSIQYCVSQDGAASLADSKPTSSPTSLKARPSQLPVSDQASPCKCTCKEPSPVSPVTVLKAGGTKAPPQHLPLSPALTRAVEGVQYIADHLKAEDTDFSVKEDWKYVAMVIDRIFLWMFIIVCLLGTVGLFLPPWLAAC
Sequence (P12390 whole entry): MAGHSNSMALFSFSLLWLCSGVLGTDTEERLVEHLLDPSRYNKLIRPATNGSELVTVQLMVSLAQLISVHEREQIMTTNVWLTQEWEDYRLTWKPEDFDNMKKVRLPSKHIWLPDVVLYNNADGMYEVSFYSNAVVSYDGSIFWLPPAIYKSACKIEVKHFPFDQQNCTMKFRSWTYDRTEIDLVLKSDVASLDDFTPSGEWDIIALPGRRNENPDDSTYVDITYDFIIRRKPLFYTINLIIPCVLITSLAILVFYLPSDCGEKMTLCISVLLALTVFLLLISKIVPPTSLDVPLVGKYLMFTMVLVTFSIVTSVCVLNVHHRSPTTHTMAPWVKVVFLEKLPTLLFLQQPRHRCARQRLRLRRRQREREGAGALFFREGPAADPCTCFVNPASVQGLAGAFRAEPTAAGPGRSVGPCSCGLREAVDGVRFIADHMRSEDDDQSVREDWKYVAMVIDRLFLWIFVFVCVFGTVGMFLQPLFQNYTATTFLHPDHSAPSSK
experiment.summary: Displacement of [3H]epibatidine from rat alpha4beta2 nAChR transfected in HEK293 cells after 2 hrs by beta-plate counting analysis
readout.label: Ki (nM)
Express your answer in nM, writing the number without its unit.

Study these solved cases before continuing.
compound="CC(C)CCCN1C(N)=NC[C@@H]1CCCCN1C[C@@H](CC2CCCCC2)N(CC2CCC(C(C)(C)C)CC2)C1=N (some centres undefined)" target_or_system="Neuronal acetylcholine receptor; alpha4/beta2 (Rattus norvegicus, UniProt P09483+P12390)" unit_info=nM experimental_value=3500
compound="CC(C)(C)C1CCC(CN2C(=N)N(CCCC[C@@H]3CNC(=N)N3CCc3cccnc3)C[C@H]2Cc2ccccc2)CC1 (some centres undefined)" target_or_system="Neuronal acetylcholine receptor; alpha4/beta2 (Rattus norvegicus, UniProt P09483+P12390)" unit_info=nM experimental_value=307
compound=N=C1N(CCCC[C@H]2CN=C(N)N2CCc2ccc(Cl)c(Cl)c2)C[C@H](Cc2ccc3ccccc3c2)N1CCc1ccc(Br)cc1 target_or_system="Neuronal acetylcholine receptor; alpha4/beta2 (Rattus norvegicus, UniProt P09483+P12390)" unit_info=nM experimental_value=3100

Now for another entry.
Readout Ki for CC(C)(C)C1CCC(CN2C(=N)N(CCCC[C@H]3CN=C(N)N3CCc3cccnc3)C[C@@H]2Cc2ccccc2)CC1 (some centres undefined) , test system Neuronal acetylcholine receptor; alpha4/beta2 (Rattus norvegicus, UniProt P09483+P12390), was 323
